Reported inhibition at 0.1 µM is given for each of the following compounds.
Target: P2X7 receptor (Homo sapiens, UniProt Q99572)
Construct: host or cells: THP-1 cells differentiated with LPS and IFN-γ
Sequence (Q99572 1-595): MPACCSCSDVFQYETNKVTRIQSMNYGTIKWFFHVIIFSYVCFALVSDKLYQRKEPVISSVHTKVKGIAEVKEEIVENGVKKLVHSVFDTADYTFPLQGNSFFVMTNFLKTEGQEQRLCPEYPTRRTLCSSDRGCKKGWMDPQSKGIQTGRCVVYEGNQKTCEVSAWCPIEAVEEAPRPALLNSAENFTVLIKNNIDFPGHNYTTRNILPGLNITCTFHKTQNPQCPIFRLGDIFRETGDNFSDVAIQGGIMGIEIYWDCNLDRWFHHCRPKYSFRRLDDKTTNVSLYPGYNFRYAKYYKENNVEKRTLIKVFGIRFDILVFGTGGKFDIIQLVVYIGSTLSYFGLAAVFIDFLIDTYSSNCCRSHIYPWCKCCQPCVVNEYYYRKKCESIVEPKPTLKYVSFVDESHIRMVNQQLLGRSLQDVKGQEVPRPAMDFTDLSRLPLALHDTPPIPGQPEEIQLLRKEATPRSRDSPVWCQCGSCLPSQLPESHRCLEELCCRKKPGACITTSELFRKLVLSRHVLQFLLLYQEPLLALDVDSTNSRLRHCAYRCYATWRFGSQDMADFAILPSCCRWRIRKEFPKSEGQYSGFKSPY
Experiment: Alternate method for IL-1β release assay (differentiated THP-1 cells, BzATP-stimulated, ELISA)
Type: cell-based
Conditions: P2X7; 0.1 μM compound (plus symbols); read-out: IL-1β % inhib @ 0.1 μM
PROPERTY MEASURED: inhibition at 0.1 µM

| COMPOUND | TARGET | OBSERVED VALUE |
| --- | --- | --- |
| O=S(=O)(c1ccc(Oc2ccccc2)cc1)N1CCc2c(ncnc2NCC23CC4CC(CC(C4)C2)C3)C1 [Compound 47] | P2X7 receptor (Homo sapiens, UniProt Q99572) | 50 to 75% |
| O=C(c1ccccc1F)N1CCc2c(ncnc2NCC23CC4CC(CC(C4)C2)C3)C1 [Compound 135] | P2X7 receptor (Homo sapiens, UniProt Q99572) | 50 to 75% |
| CCS(=O)(=O)N1CCc2c(ncnc2NCC23CC4CC(CC(C4)C2)C3)C1 [Compound 9] | P2X7 receptor (Homo sapiens, UniProt Q99572) | > 75% |
| O=C(c1ccc(F)cc1)N1CCc2c(ncnc2NCC23CC4CC(CC(C4)C2)C3)C1 [Compound 106] | P2X7 receptor (Homo sapiens, UniProt Q99572) | > 75% |
| COc1cccc(C(=O)N2CCc3c(ncnc3NCC34CC5CC(CC(C5)C3)C4)C2)c1 [Compound 105] | P2X7 receptor (Homo sapiens, UniProt Q99572) | 25 to 50% |
| O=C(c1ccno1)N1CCc2c(ncnc2NCC23CC4CC(CC(C4)C2)C3)C1 [Compound 149] | P2X7 receptor (Homo sapiens, UniProt Q99572) | > 75% |
| O=C(c1ccccc1)N1CCc2c(ncnc2NCC23CC4CC(CC(C4)C2)C3)C1 [Compound 77] | P2X7 receptor (Homo sapiens, UniProt Q99572) | > 75% |
| O=C(COc1ccccc1)N1CCc2c(ncnc2NCC23CC4CC(CC(C4)C2)C3)C1 [Compound 104] | P2X7 receptor (Homo sapiens, UniProt Q99572) | 50 to 75% |
